Listed here are molecules together with their documented TGI.
tested on: HS 578T breast; experiment: NCI tumour cell line growth inhibition, 48 h

Molecule: Cl.[Pt].[c-]1ccccc1-c1ccccn1.c1ccc(P(c2ccccc2)C([PH+](c2ccccc2)c2ccccc2)[PH+](c2ccccc2)c2ccccc2)cc1
Lt Gt Eq: =
TGI (µM): 20.8
--
Molecule: COc1cc2cc(C(=O)N3CC(CCl)c4c3cc(N)c3ccccc43)[nH]c2cc1OCCN(C)C (stereo not given)
Lt Gt Eq: =
TGI (µM): 0.125
--
Molecule: CC(=O)NC1C(CO)O[C@@H]2OC(C)(C)O[C@H]12 (stereo not given in full)
Lt Gt Eq: >
TGI (µM): 100
--
Molecule: S=C(N/N=C\C=N/NC(=S)N1CCCCCC1)N1CCCCCC1
Lt Gt Eq: >
TGI (µM): 100
--
Molecule: O=C(O)c1c(O)c2cc(Br)ccc2oc1=O
Lt Gt Eq: >
TGI (µM): 100

Origin of values: PubChem BioAssay (NCI)
